Assay: Cytotoxicity against human MT4 cells after 5 days by spectrophotometry
Format: cell-based
We label by threshold. Values of CC50 at 120 h strictly beneath 200 µM are rule met. Values of 200 µM and up are rule not met.

Answered cases to consult:
[
  {
    "Molecule": "COc1c(N2CCN(CN3C(=O)/C(=N\\NC(=S)NO)c4cc(Cl)ccc43)C(C)C2)c(F)cc2c(=O)c(C(=O)O)cn(C3CC3)c12 (stereo not drawn)",
    "Classification": "rule not met"
  },
  {
    "Molecule": "O=C1/C(=N\\NC(=S)NO)c2cc(Cl)ccc2N1CN1CCN(c2ccc(Cl)cc2)CC1",
    "Classification": "rule not met"
  },
  {
    "Molecule": "O=C(O)c1cn(C2CC2)c2cc(N3CCN(CN4C(=O)/C(=N\\NC(=S)NO)c5cc(F)ccc54)CC3)c(F)cc2c1=O",
    "Classification": "rule not met"
  },
  {
    "Molecule": "CN(C)CN1C(=O)/C(=N\\NC(=S)NO)c2cc(Cl)ccc21",
    "Classification": "rule not met"
  },
  {
    "Molecule": "CCn1cc(C(=O)O)c(=O)c2cc(F)c(N3CCN(CN4C(=O)/C(=N\\NC(=S)NOC)c5cc(Cl)ccc54)C(C)C3)c(F)c21 (stereo not drawn)",
    "Classification": "rule met"
  },
  {
    "Molecule": "CONC(=S)N/N=C1\\C(=O)N(CN2CCN(c3cc4c(cc3F)c(=O)c(C(=O)O)cn4C3CC3)CC2)c2ccc(Cl)cc21",
    "Classification": "rule met"
  }
]

Determine if CONC(=S)N/N=C1\C(=O)N(CN2CCOCC2)c2ccc(F)cc21 shows CC50 at 120 h strictly lower than 200 µM.
rule not met

Could you please tell me whether CC50 at 120 h recorded for CCn1cc(C(=O)O)c(=O)c2cc(F)c(N3CCN(CN4C(=O)/C(=N\NC(=S)NO)c5cc(Cl)ccc54)C(C)C3)c(F)c21 (stereo not drawn) is less than 200 µM?
rule not met

====

Molecular target: Isocitrate lyase (Mycobacterium tuberculosis)
Assay: Inhibition of Mycobacterium tuberculosis isocitrate lyase […]
Label scheme for inhibition: lower than 20% is 0, 20% and above is 1.

# count of solved cases: 3
[
  {
    "Smi": "O=C1/C(=N\\NC(=S)NO)c2cc(F)ccc2N1CN1CCN(c2ccc(Cl)cc2)CC1",
    "Test Target": "Isocitrate lyase (Mycobacterium tuberculosis)",
    "Classification": 0
  },
  {
    "Smi": "CONC(=S)N/N=C1\\C(=O)N(CN2CCN(c3ccc(Cl)cc3)CC2)c2ccc(Cl)cc21",
    "Test Target": "Isocitrate lyase (Mycobacterium tuberculosis)",
    "Classification": 0
  },
  {
    "Smi": "CONC(=S)N/N=C1\\C(=O)N(CN2CCN(c3ccc(OC)cc3)CC2)c2ccc(C)cc21",
    "Test Target": "Isocitrate lyase (Mycobacterium tuberculosis)",
    "Classification": 1
  }
]

API: above_or_equal(metric=inhibition, cutoff=20%) for item CCN(CC)CN1C(=O)/C(=N\NC(=S)NOC)c2cc(C)ccc21
0

Determine whether measured inhibition meets or exceeds 20% for CONC(=S)N/N=C1\C(=O)N(CN2CCN(c3ccc(Cl)cc3)CC2)c2ccc(F)cc21
1
